Assay: protein stability index of a GFP-peptide fusion (GPS, HEK-293T) (PSI 1-6); higher = more stable;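 further: 24-mer peptide tiles fused after GFP, lentivirally expressed, FACS-sorted into six equal bins by GFP/DsRed ratio, decoded by Illumina sequencing, PSI is the read-weighted mean bin number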
Details: treatment: MLN4924 1 uM, 8 h; c terminus: a fixed tail appended
Endpoint: protein stability index

- Residue codes: "LQQAQAQFRMAQEEARRNRLMRDM [SMG5]"
  Value measured: 4.11
- Residue codes: "DRQYDSRGRFGELLLLLPTLQSIT [HNF4A]"
  Value measured: 2.17
- Residue codes: "LIQFLEQVHQGIKGMVLDENYNNL [CPN1]"
  Value measured: 3.07
- Residue codes: "KGGAVAADGRIEPGDMLLQVNEIN [DVL3]"
  Value measured: 4.59
- Residue codes: "DGLPDLGHAQDLMDGLPPGDSNQL [CTNNB1]"
  Value measured: 5.4
- Residue codes: "TEIANCSLKVKFFDLERENACATK [PLD5]"
  Value measured: 3.92
- Residue codes: "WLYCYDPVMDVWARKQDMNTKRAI [KLHL14]"
  Value measured: 2.53
- Residue codes: "RLIRKMFSFKVSRWMGLACFRSLA [CCDC70]"
  Value measured: 2.29
- Residue codes: "PQSLPSTPKAAWIREEGRCSSSDD [PBXIP1]"
  Value measured: 5.27
- Residue codes: "QKSVTRSCLLEEEEESGEEAAEAM [POP5]"
  Value measured: 5.47
- Residue codes: "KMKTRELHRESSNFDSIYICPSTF [HDAC6]"
  Value measured: 2.71
- Residue codes: "LSQRTITVGVYEAAKLLNVDPDNV [GADD45A]"
  Value measured: 3.14
- Residue codes: "LAIQEMVSLTSPSAPPTSRTSSGN [PPFIA4]"
  Value measured: 4.05
- Residue codes: "EFDDGSGSVLRIQPLRTPRDEAIY [PTPRD]"
  Value measured: 3.88
- Residue codes: "LQLGDGGGCTVGVAGEGVRRKGEM [TRIM15]"
  Value measured: 3.84
- Residue codes: "RDSAYQSITHYRPVSASRSSLDLS [EMD]"
  Value measured: 3.58
- Residue codes: "TIKSHLKSFSMANGMNAVMMHGRS [RAB40C]"
  Value measured: 2.6
- Residue codes: "KWTRVASMSTRRLGVAVAVLGGFL [KLHL20]"
  Value measured: 2.08
- Residue codes: "MEIFMEEMREIRRKLRELQLRNCL [BEX3]"
  Value measured: 2.52
- Residue codes: "SALSDTEIQREIGISNALHRLKLR [PPFIA4]"
  Value measured: 4.17
- Residue codes: "LDAEDRPAWNSKLQYILAQIGFSV [SLC6A17]"
  Value measured: 2.32
- Residue codes: "AALLGSNSESWGWDIGRGKLYHQS [SPSB2]"
  Value measured: 3.06
- Residue codes: "PLVLSYIDLSAWCYYCQAYVHHQA [HDAC6]"
  Value measured: 3.27
- Residue codes: "PPASARRLSVPRDSACDESSCIPK [IRX6]"
  Value measured: 5.31
- Residue codes: "GAELHLQPLEGGTPNSAGGPGAHI [ADAMTS4]"
  Value measured: 4.74
- Residue codes: "RCEELEDARYKLHHHLHKTLREIT [TEKT4]"
  Value measured: 2.8
- Residue codes: "LYAVGGHDGSSYLNSVERYDPKTN [KLHL20]"
  Value measured: 3.79
